Test system: KRas G12D-mediated phosphorylation of ERK
protocol-text: Inhibition of KRas G12D-mediated phosphorylation of ERK in AGS cells
Type: cell-based
test-context: Homo sapiens; AGS cells expressing G12D, 3 hours, phospho-ERK normalized to GAPDH
pIC50: −log10 of the molar value. Counter-ions that a name gives are not always drawn.
Respond with criterion met for pIC50 values of 6 and above, criterion not met for values below.

hey, is pIC50 for this one >= 6? `CC(C)c1c(F)cc(O)cc1-c1ncc2c(N3C[C@H]4CC[C@@H](C3)N4)nc(OC[C@@]34CCCN3C[C@H](F)C4)nc2c1F`
criterion met

hey, is pIC50 for this one >= 6? FCC1CCC2(COc3nc(N4C[C@H]5CC[C@@H](C4)N5)c4cnc(-c5cccc6cccc(Cl)c56)c(F)c4n3)CCCN12 (stereo partly drawn)
criterion met

hey, is pIC50 for this one >= 6? `CS(=O)(=O)NC[C@H]1CC[C@@]2(COc3nc(N4C[C@H]5CC[C@@H](C4)N5)c4cnc(-c5cccc6cccc(Cl)c56)c(F)c4n3)CCCN12`
criterion not met

hey, is pIC50 for this one >= 6? CN1CCC[C@H]1COc1nc(N2CC3CCC(CCC#N)(C2)N3)c2cnc(-c3cc(O)cc4ccccc34)c(F)c2n1 (stereo partly drawn) [Example 157, bis(2,2,2-trifluoroacetate)]
criterion not met

hey, is pIC50 for this one >= 6? `CCc1cccc2cc(O)cc(-c3ncc4c(N5CC6CCC(C5)N6)nc(OC[C@]56CCCN5[C@@H](COC(=O)N(C)C)CC6)nc4c3F)c12`
criterion met

hey, is pIC50 for this one >= 6? `CCc1c(F)ccc2cc(O)cc(-c3ncc4c(N5C[C@H]6CC[C@@H](C5)N6)nc(OC[C@]56CCCN5[C@@H](COC(=O)N(C)C)CC6)nc4c3F)c12`
criterion met

hey, is pIC50 for this one >= 6? `Oc1cc(-c2ncc3c(N4C[C@H]5CC[C@@H](C4)N5)nc(OC[C@@]45CCCN4C[C@H](F)C5)nc3c2F)c2c(F)c(F)ccc2c1`
criterion met

hey, is pIC50 for this one >= 6? `C#Cc1cccc2cccc(-c3ncc4c(N5C[C@H]6CC[C@@H](C5)N6)nc(OCC56CCCN5CCC6)nc4c3F)c12`
criterion met

hey, is pIC50 for this one >= 6? CN1CCC[C@H]1COc1nc(N2C[C@H]3CC[C@@H](C2)N3)c2cnc(-c3cc(O)cc4ccccc34)cc2n1 [Example 1, tris-hydrochloride salt]
criterion not met

hey, is pIC50 for this one >= 6? `Fc1c(-c2cccc3cccc(CC(F)F)c23)ncc2c(N3C[C@H]4CC[C@@H](C3)N4)nc(OCC34CCCN3CCC4)nc12`
criterion not met

hey, is pIC50 for this one >= 6? Fc1ccc2cccc(-c3ncc4c(N5C[C@H]6CC[C@@H](C5)N6)nc(OCC56CCCN5CCC6)nc4c3F)c2c1Cl [Example 98, bis(2,2,2-trifluoroacetate)]
criterion met

hey, is pIC50 for this one >= 6? `OCCc1cccc2cccc(-c3ncc4c(N5C[C@H]6CC[C@@H](C5)N6)nc(OCC56CCCN5CCC6)nc4c3F)c12`
criterion not met
